test-summary: log P by HPLC on reversed-phase column (EEC Directive 79/831 Annex V.A8)
Assay type: physicochemical
Protocol: In table 1, the log P values were determined in accordance with EEC Directive 79/831 Annex V.A8 by HPLC (High Performance Liquid Chromatography) on a reversed-phase column (C18), using the method described below: Temperature: 40° C.; […]
// logP lookup, one value per entry

{"columns": ["molecule", "logP"],
 "data": [
  ["Cn1nc(C(F)F)c(C(=O)NC2CCCCC2C(C)(C)C)c1Cl (stereo not drawn) [Example 348]", 4.15],
  ["CN(C(=O)c1c(C(F)F)nn(C)c1F)C(COc1ccccc1)C1CC1 (stereo not drawn) [Example 21]", 3.08],
  ["CN(CCCc1cc(Cl)ccc1Cl)C(=S)c1c(C(F)F)nn(C)c1F [Example 168]", 4.11],
  ["CCC(COc1cccc2ccccc12)NC(=O)c1c(C(F)F)nn(C)c1F (stereo not drawn) [Example 222]", 3.71],
  ["Cn1nc(C(F)F)c(C(=O)N(CCOc2c(Cl)cc(Cl)cc2Cl)C2CCCC2)c1F [Example 209]", 5.08],
  ["Cn1nc(C(F)F)c(C(=O)NCC(Sc2ccc(Cl)cc2)C(F)(F)F)c1Cl (stereo not drawn) [Example 47]", 3.89],
  ["CC(C)CC(C)C1CCCCC1NC(=O)c1c(C(F)F)nn(C)c1Cl (single isomer, unassigned) [Example 335]", "4.96 isomer B"],
  ["Cc1cccc(C)c1CCC(C)NC(=O)c1c(C(F)F)nn(C)c1F (stereo not drawn) [Example 154]", 3.41],
  ["CCC1(C)CC(NC(=O)c2c(C(F)F)nn(C)c2Cl)CC(C)(C)C1 (stereo not drawn) [Example 362]", 4.44]
]}
